# study.system: T1, cynomolgus monkey IL-33 expressed with a C-terminal hexahistidine tag (cynomolgus monkey)
# T1 construct: also called MfIL-33-6His; Mf-IL-33-6His
# T1 chain: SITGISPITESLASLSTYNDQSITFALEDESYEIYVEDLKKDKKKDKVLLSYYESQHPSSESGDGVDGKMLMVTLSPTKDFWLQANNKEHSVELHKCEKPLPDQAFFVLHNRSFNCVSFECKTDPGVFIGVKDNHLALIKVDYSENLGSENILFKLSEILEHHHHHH
# procedure.text: BLI; captured MfIL-33-6His, mAb-1 step with Buffer
property.label: mAb-2 Binding to the Pre-complex of mAb-1 & MfIL-33-6xHis (nm)

{"binder": "H4H9659P (antibody, human IgG4, V domains shown, Human IgG4 Fc (H4H)) VH: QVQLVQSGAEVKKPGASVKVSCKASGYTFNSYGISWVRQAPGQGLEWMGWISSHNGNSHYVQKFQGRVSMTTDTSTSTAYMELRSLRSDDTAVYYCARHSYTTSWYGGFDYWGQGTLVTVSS VL: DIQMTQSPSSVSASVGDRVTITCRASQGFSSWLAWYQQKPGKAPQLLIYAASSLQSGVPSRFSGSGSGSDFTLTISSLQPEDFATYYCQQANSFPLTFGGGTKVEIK", "measured.number": 0.31}
{"binder": "H1M9559N (antibody, mouse IgG1, V domains shown, Human variable domains, mouse IgG1 Fc (H1M)) VH: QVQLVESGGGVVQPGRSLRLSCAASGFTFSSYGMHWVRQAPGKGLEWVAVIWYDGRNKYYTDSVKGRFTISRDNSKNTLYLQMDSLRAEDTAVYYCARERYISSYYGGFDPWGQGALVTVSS VL: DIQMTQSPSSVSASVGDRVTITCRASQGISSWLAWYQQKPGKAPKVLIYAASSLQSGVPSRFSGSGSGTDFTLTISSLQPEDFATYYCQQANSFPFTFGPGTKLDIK", "measured.number": 0.25}
